# Experimental System: Prostaglandin E2 receptor EP3 subtype (Homo sapiens, UniProt P43115)
# Sequence (P43115 whole entry): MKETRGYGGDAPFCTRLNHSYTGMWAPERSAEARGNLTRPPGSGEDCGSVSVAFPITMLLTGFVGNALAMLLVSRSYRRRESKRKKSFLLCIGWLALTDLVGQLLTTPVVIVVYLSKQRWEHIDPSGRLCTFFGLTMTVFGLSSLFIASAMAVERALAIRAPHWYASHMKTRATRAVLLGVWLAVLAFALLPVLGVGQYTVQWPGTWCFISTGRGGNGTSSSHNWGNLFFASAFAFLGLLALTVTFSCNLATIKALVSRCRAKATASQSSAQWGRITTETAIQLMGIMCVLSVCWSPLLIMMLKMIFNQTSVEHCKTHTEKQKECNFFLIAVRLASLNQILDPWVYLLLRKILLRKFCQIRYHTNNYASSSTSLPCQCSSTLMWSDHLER
# Procedure Text: Functional activity in RAT-1cells, transiently-transfected with human Prostaglandin E receptor EP3(% of control ligand, sulprostone=75%)
pEC50: −log10 of the molar value.

Structure As Smiles | pEC50
O=C(O)CCC/C=C\C[C@@H]1[C@@H](/C=C/[C@@H](O)COc2cccc(Cl)c2)[C@H](O)C[C@@H]1O | 5.30
